ASSAY SUMMARY: in vivo
Set-up: species or system male Sprague-Dawley rats
EXPERIMENTAL CONTEXT: rat, in vivo; single oral dose, fasted rats, 24 hours; read-out: Ulcerogenic character acute UD50

GIVEN SMILES | TD50 at 24 h (mg/kg)
Cc1oncc1C(=O)Nc1cc(C(F)(F)F)cc(C(F)(F)F)c1 | 100

* * *

ASSAY SUMMARY: in vivo
Parameters: species or system male Sprague-Dawley rats
EXPERIMENTAL CONTEXT: rat, in vivo, po
TEST READOUT: TD50 at 24 h (mg/kg)

GIVEN SMILES | OBSERVED
Cc1oncc1C(=O)Nc1ccccc1C(F)(F)F | 350
Cc1oncc1C(=O)Nc1ccc(C(F)(F)F)cc1 | 57
